molecular target: human orexin-2 receptor (Homo sapiens (Human)); assay: In vitro assay: intracellular calcium measurements (FLIPR), antagonistic activity; details: CHO cells expressing human orexin-2 receptor, orexin-A agonist, geometric mean, read-out: IC50 Ox2
Sequence (O43614 whole entry): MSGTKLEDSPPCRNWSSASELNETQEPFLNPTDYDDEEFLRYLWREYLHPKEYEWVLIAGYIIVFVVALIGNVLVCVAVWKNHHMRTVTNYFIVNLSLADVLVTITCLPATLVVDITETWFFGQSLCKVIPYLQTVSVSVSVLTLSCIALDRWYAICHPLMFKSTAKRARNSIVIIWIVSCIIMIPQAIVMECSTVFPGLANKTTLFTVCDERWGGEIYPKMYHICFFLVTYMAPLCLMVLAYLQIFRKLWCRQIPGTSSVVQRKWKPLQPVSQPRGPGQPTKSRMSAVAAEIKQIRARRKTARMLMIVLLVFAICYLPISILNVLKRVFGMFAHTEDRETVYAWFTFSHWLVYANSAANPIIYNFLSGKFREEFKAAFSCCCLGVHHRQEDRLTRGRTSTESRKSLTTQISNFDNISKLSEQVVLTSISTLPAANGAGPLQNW
quantity-measured: log10(IC50) (log10 of the value in µM)

{"columns": ["compound", "target", "log10(IC50)"],
 "data": [
  ["CCn1c([C@]2(C)CCCN2C(=O)c2cc(C)c(C)cc2-n2nccn2)nc2cc(OC)c(OC)cc21 [Ex. 7.14]", "human orexin-2 receptor (Homo sapiens (Human))", -1.30],
  ["C=C1CC(c2nc3cc4ccccc4cc3[nH]2)N(C(=O)c2cc(C)sc2-c2ccc(C)c(C)c2)C1 (stereo not shown) [Ex. 6.85]", "human orexin-2 receptor (Homo sapiens (Human))", -1.38],
  ["C=C1C[C@@H](c2nc3cc(Cl)c(C(F)(F)F)cc3[nH]2)N(C(=O)c2cc(C)ccc2-n2nccn2)C1 [Ex. 6.67]", "human orexin-2 receptor (Homo sapiens (Human))", -2.30],
  ["C[C@@]1(c2nc3cc(Cl)c(C(F)(F)F)cc3[nH]2)CCCN1C(=O)c1nc(-c2cccc(F)c2)sc1-c1ccc(F)cc1 [Ex. 5.290]", "human orexin-2 receptor (Homo sapiens (Human))", 0.33],
  ["CO[C@@H]1C[C@@H](c2nc3ccc(Cl)c(C)c3[nH]2)N(C(=O)c2nc(N(C)C)sc2-c2cccc(Cl)c2)C1 [Ex. 3.41]", "human orexin-2 receptor (Homo sapiens (Human))", -2.15],
  ["Cc1c(Cl)ccc2[nH]c([C@@H]3[C@@H](C)CCN3C(=O)c3c(F)cccc3-c3ncccn3)nc12 [Ex. 4.177]", "human orexin-2 receptor (Homo sapiens (Human))", -0.66],
  ["Cc1ccc(-c2ccc(C)cc2C(=O)N2CCC[C@@]2(C)c2nc3cc(C)c(C)cc3[nH]2)cc1 [Ex. 5.100]", "human orexin-2 receptor (Homo sapiens (Human))", -1.57]
]}
